- TARGET UNDER TEST: RhlR (Pseudomonas aeruginosa)
- Construct: expressed in transfected cells; host or cells: E. coli JLD271 (K-12 ΔlacX74 sdiA271::Cam) carrying pJN105-R2 (RhlR expression) and pSC11-rhlI (rhlI'-lacZ reporter)
- TEST DETAILS: P. aeruginosa PA14 ΔrhlIΔlasI RhlR GFP reporter antagonism assay
- Format: cell-based
- TEST CONTEXT: P. aeruginosa PA14 ΔrhlIΔlasI; against 4 μM BHL with 10 μM OdDHL; highest concentrations tested
MEASURED PARAMETER: Max Inhibition (RhlR) (%)
Answers are plain numbers, in %.

Known Max Inhibition (RhlR) results, listed for orientation:
CCCCCS(=O)(=O)N[C@H]1CCOC1=O [Compound 75, C5 ASHL] = 67
O=C1OCC[C@@H]1NS(=O)(=O)c1cccc(Br)c1 [Compound 39, 3-bromo BSHL] = 47
O=C1OCC[C@@H]1NS(=O)(=O)c1ccc(Cl)c(Cl)c1 [Compound 43, 3,4-di-Cl BSHL] = 59

Next compound, Max Inhibition (RhlR) to be filled in.
The measured Max Inhibition (RhlR) associated with O=C1OCC[C@@H]1NS(=O)(=O)c1ccc(F)c(F)c1 [Compound 59, 3,4-di-F BSHL] reads 49

* * *

- TARGET UNDER TEST: RhlR (Pseudomonas aeruginosa)
- Construct: expressed in transfected cells; host or cells: E. coli JLD271 (K-12 ΔlacX74 sdiA271::Cam) carrying pJN105-R2 (RhlR expression) and pSC11-rhlI (rhlI'-lacZ reporter)
- TEST DETAILS: P. aeruginosa PA14 ΔrhlIΔlasI RhlR GFP reporter antagonism assay
- Type: cell-based
- TEST CONTEXT: P. aeruginosa PA14 ΔrhlIΔlasI RhlR reporter
MEASURED PARAMETER: IC50

The measured IC50 associated with `CCCCCS(=O)(=O)N[C@H]1CCOC1=O` reads > 1000 µM

* * *

- TARGET UNDER TEST: RhlR (Pseudomonas aeruginosa, UniProt P54292)
- Construct: expressed in transfected cells; host or cells: E. coli JLD271 (K-12 ΔlacX74 sdiA271::Cam) carrying pJN105-R2 (RhlR expression) and pSC11-rhlI (rhlI'-lacZ reporter)
- Sequence (P54292 whole entry): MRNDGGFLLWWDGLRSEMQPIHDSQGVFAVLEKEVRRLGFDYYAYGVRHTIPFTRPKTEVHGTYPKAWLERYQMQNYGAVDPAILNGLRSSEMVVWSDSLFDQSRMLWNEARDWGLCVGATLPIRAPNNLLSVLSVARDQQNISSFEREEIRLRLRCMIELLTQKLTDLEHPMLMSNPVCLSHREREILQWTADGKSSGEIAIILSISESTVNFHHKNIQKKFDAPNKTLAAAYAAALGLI
- TEST DETAILS: E. coli (JLD271) RhlR reporter antagonism assay, in competition with BHL
- Type: cell-based
- TEST CONTEXT: IC50, E. coli JLD271 RhlR reporter; against 10 μM BHL
MEASURED PARAMETER: pIC50
Give bare numbers, as −log10 of the molar value.

O=C1OCC[C@@H]1NS(=O)(=O)c1ccc(Cl)c(Cl)c1Cl = 2.99
O=C1OCC[C@@H]1NS(=O)(=O)c1cc(F)c(F)c(F)c1 = 4.61

Could I get pIC50 for every one of these entries?
1. O=C1OCC[C@@H]1NS(=O)(=O)c1ccc(Br)cc1
2. O=C1OCC[C@@H]1NS(=O)(=O)c1ccc(F)c([N+](=O)[O-])c1

3.78
3.59

* * *

- TARGET UNDER TEST: RhlR (Pseudomonas aeruginosa, UniProt P54292)
- Construct: expressed in transfected cells; host or cells: E. coli JLD271 (K-12 ΔlacX74 sdiA271::Cam) carrying pJN105-R2 (RhlR expression) and pSC11-rhlI (rhlI'-lacZ reporter)
- TEST DETAILS: E. coli (JLD271) RhlR reporter antagonism assay, in competition with BHL
- Type: cell-based
- TEST CONTEXT: E. coli JLD271 RhlR reporter; against 10 μM BHL
MEASURED PARAMETER: IC50 (µM)
Give bare numbers, in µM.

Could I get IC50 for every one of these entries?
1. CCCCS(=O)(=O)N[C@H]1CCOC1=O
2. CCCCCCS(=O)(=O)N[C@H]1CCOC1=O
3. CCCCCS(=O)(=O)N[C@H]1CCOC1=O

1: 35.2; 2: 36.4; 3: 20.6

* * *

- TARGET UNDER TEST: RhlR (Pseudomonas aeruginosa, UniProt P54292)
- Construct: expressed in transfected cells; host or cells: E. coli JLD271 (K-12 ΔlacX74 sdiA271::Cam) carrying pJN105-R2 (RhlR expression) and pSC11-rhlI (rhlI'-lacZ reporter)
- TEST DETAILS: E. coli (JLD271) RhlR reporter agonism assay (no BHL added)
- Assay type: cell-based
MEASURED PARAMETER: pEC50
Numbers only, as −log10 of the molar value.

Kindly note: RhlR (Pseudomonas aeruginosa, UniProt P54292), CCCC(=O)N[C@H]1CCOC1=O [BHL, N-butanoyl L-homoserine lactone, reference compound] , pEC50 value reported: 5.00

* * *

Provide the recorded IC50 for the entries that follow.
- TARGET UNDER TEST: RhlR (Pseudomonas aeruginosa)
- Construct: expressed in transfected cells; host or cells: E. coli JLD271 (K-12 ΔlacX74 sdiA271::Cam) carrying pJN105-R2 (RhlR expression) and pSC11-rhlI (rhlI'-lacZ reporter)
- TEST DETAILS: E. coli (JLD271) RhlR reporter antagonism assay, in competition with BHL
- Format: cell-based
- TEST CONTEXT: IC50, E. coli JLD271 RhlR reporter; against 10 μM BHL
Give bare numbers, in µM.

O=C1OCC[C@@H]1NS(=O)(=O)c1ccccc1F = 863
O=C1OCC[C@@H]1NS(=O)(=O)Cc1ccc(F)cc1 = 205
O=C1OCC[C@H]1NS(=O)(=O)c1ccc(Cl)c(Cl)c1 = 195
O=C1OCC[C@@H]1NS(=O)(=O)c1cccc(F)c1 = 120
O=C1OCC[C@@H]1NS(=O)(=O)c1ccc(I)cc1 = 295
O=C1OCC[C@@H]1NS(=O)(=O)c1cccc(Br)c1 = 29.9

The measured IC50 associated with `O=C1OCC[C@@H]1NS(=O)(=O)c1ccc(Cl)c(Cl)c1` reads 54.3

* * *

- TARGET UNDER TEST: RhlR (Pseudomonas aeruginosa, UniProt P54292)
- Construct: expressed in transfected cells; host or cells: E. coli JLD271 (K-12 ΔlacX74 sdiA271::Cam) carrying pJN105-R2 (RhlR expression) and pSC11-rhlI (rhlI'-lacZ reporter)
- TEST DETAILS: E. coli (JLD271) RhlR reporter antagonism assay, in competition with BHL
- Type: cell-based
- TEST CONTEXT: E. coli RhlR reporter; BHL at 10 μM set to 0%, media control set to 100%
Marks after values point to notes of the source that are not given here.
Provide the recorded max. RhlR inhibition (%) for the entries that follow.

Known max. RhlR inhibition (%) results, listed for orientation:
O=C1OCC[C@@H]1NS(=O)(=O)c1ccc(Cl)c(Cl)c1 = 99%
CCCCCS(=O)(=O)N[C@H]1CCOC1=O = 84%
O=C1OCC[C@@H]1NS(=O)(=O)Cc1ccc(Cl)cc1 = 99%
CCCCS(=O)(=O)N[C@H]1CCOC1=O = 70%
O=C1OCC[C@@H]1NS(=O)(=O)c1ccc(I)cc1 = 99%
O=C(Cc1ccc(C(F)(F)F)cc1)N[C@H]1CCOC1=O [Compound C20, 4-CF3 PHL, reference compound] = 93%

Could I get max. RhlR inhibition (%) for every one of these entries?
1. O=C1OCC[C@@H]1NS(=O)(=O)c1ccc(Cl)c(C(F)(F)F)c1
2. O=C1OCC[C@@H]1NS(=O)(=O)c1cccc(Br)c1
3. O=C1OCC[C@@H]1NS(=O)(=O)Cc1ccc(Cl)c(Cl)c1
4. O=C1OCC[C@@H]1NS(=O)(=O)c1ccc(Cl)cc1Cl
5. O=C1OCC[C@@H]1NS(=O)(=O)c1cc(Cl)c(F)c(Cl)c1
6. O=C1OCC[C@@H]1NS(=O)(=O)c1cc(F)c(F)c(F)c1
7. O=C1OCC[C@@H]1NS(=O)(=O)Cc1ccc(C(F)(F)F)cc1
8. O=C1OCC[C@@H]1NS(=O)(=O)c1ccc(Br)cc1

1. 90%
2. 90%
3. 82%
4. 99%
5. 85%
6. 80%
7. 35 ^f %
8. 99%

Could I get max. RhlR inhibition (%) for every one of these entries?
1. O=C1OCC[C@@H]1NS(=O)(=O)Cc1cccc(Cl)c1
2. CCCS(=O)(=O)N[C@H]1CCOC1=O
3. O=C1OCC[C@@H]1NS(=O)(=O)c1ccc(Br)c(Cl)c1

["99%", "45 ^f %", "98%"]

* * *

Provide the recorded max. RhlR inhibition (%) for the entries that follow.
- TARGET UNDER TEST: RhlR (Pseudomonas aeruginosa)
- Construct: expressed in transfected cells; host or cells: E. coli JLD271 (K-12 ΔlacX74 sdiA271::Cam) carrying pJN105-R2 (RhlR expression) and pSC11-rhlI (rhlI'-lacZ reporter)
- TEST DETAILS: E. coli (JLD271) RhlR reporter antagonism assay, in competition with BHL
- Format: cell-based
- TEST CONTEXT: E. coli RhlR reporter; BHL at 10 μM set to 0%, media control set to 100%
Give bare numbers, in %.

Could I get max. RhlR inhibition (%) for every one of these entries?
1. Cc1cccc(S(=O)(=O)N[C@H]2CCOC2=O)c1
2. Cc1ccc(CC(=O)N[C@H]2CCOC2=O)cc1 [Compound C19, 4-Me PHL, reference compound]
3. O=C1OCC[C@@H]1NS(=O)(=O)c1ccccc1F
4. O=C1OCC[C@@H]1NS(=O)(=O)c1cccc(F)c1
5. O=C1OCC[C@@H]1NS(=O)(=O)Cc1ccc(F)cc1

1: 95; 2: 89; 3: 91; 4: 92; 5: 94
